Test: Permeability assay in Caco-2 cells
Details: human, Caco-2, pH 7.4
REPORTED_ENDPOINT: efflux ratio at 2 h, 5 μM

>  <MOLECULE>
C[C@H]1O[C@@H](O[C@H]2[C@@H](O)C[C@H](O[C@H]3[C@@H](O)C[C@H](O[C@H]4CC[C@@]5(C)[C@H](CC[C@@H]6[C@@H]5C[C@@H](O)[C@]5(C)[C@@H](C7=CC(=O)OC7)CC[C@]65O)C4)O[C@@H]3C)O[C@@H]2C)C[C@H](O)[C@@H]1O

>  <REPORTED_ENDPOINT>
efflux ratio at 2 h, 5 μM

>  <READING>
28.2

$$$$
>  <MOLECULE>
COc1cc2nc(N3CCN(C(=O)c4ccco4)CC3)nc(N)c2cc1OC

>  <REPORTED_ENDPOINT>
efflux ratio at 2 h, 5 μM

>  <READING>
3.06

$$$$
>  <MOLECULE>
C[C@@H]1Cc2cc(C(N)=O)cnc2N1

>  <REPORTED_ENDPOINT>
efflux ratio at 2 h, 5 μM

>  <READING>
0.79

$$$$

Now examine the next entry.
Lab note: measured efflux ratio at 2 h, 5 μM of CC(C)NCC(O)COc1cccc2ccccc12 (stereo not shown) was 0.62
